The reported measurements were obtained from patent US10251931B2.

TARGET_DESC: HIV-1 gp120 (Human immunodeficiency virus type 1 group M subtype B, UniProt P35961)
Construct: Expression and Purification of Wild-Type gp120YU-2; made in house; host or cells: HEK 293F
Type: binding
STUDY_CONDITIONS: SPR competition
Starred links: 1 amine or outer side, 2 acyl side, 3 side chain; linkers in the order of their positions; H or OH if unused. Positions of bridges follow the written chain, without caps; N, C: chain ends. Non-standard residues stand in square brackets, D forms with d. Residues, ends and D or L forms follow the SMILES beside them. ξ: configuration not given here. Pro(cis-4-Trz(4-CH2CH2Ph)) = O=C(O)[C@@H]1C[C@H](n2cc(CCc3ccccc3)nn2)CN1; X4 = O=C([C@@H]1C[C@H](n2cc(C3C4CC5CC(C4)CC3C5)nn2)CN1[*:1])[*:2]; Ile(3ξ) = CCC(C)[C@H](N)C(=O)O; Orn = NCCC[C@H](N)C(=O)O; Dab = NCC[C@H](N)C(=O)O; ξD = NC(CC(=O)O)C(=O)O
ASSAY_ENDPOINT: Dual receptor site (CD4 and 17b) inhibition of gp120, in words

# COMPOUND, OBSERVED_VALUE
measured = [
    ("CCC(C)[C@@H]1NC(=O)[C@H](CC(N)=O)NC(=O)[C@@H](N)CC(=O)NCCCC[C@@H](C(N)=O)NC(=O)[C@H](Cc2c[nH]c3ccccc23)NC(=O)[C@@H]2C[C@H](n3cc(C4C5CC6CC(C5)CC4C6)nn3)CN2C1=O (some centres unmarked) [AAR029F] (H-DN[Ile(3ξ)][X4]WK-NH2; lactam 1-6)", "dual inhibitors"),
    ("CC[C@H](C)[C@@H]1NC(=O)[C@H](CC(N)=O)NC(=O)C(N)CC(=O)NCC[C@@H](C(N)=O)NC(=O)[C@H](Cc2c[nH]c3ccccc23)NC(=O)[C@@H]2C[C@H](n3cc(CCc4ccccc4)nn3)CN2C1=O (stereo partly drawn) [AAR032] (H-[ξD]NI[Pro(cis-4-Trz(4-CH2CH2Ph))]W[Dab]-NH2; lactam 1-6)", "dual inhibitors"),
    ("CC[C@H](C)[C@@H]1NC(=O)[C@H](CC(N)=O)NC(=O)[C@@H](N)CC(=O)NCCC[C@@H](C(N)=O)NC(=O)[C@H](Cc2c[nH]c3ccccc23)NC(=O)[C@@H]2C[C@H](n3cc(CCc4ccccc4)nn3)CN2C1=O [AAR031] (H-DNI[Pro(cis-4-Trz(4-CH2CH2Ph))]W[Orn]-NH2; lactam 1-6)", "dual inhibitors"),
    ("CC[C@H](C)[C@@H]1NC(=O)[C@H](CC(N)=O)NC(=O)[C@@H](N)CC(=O)NCCCC[C@@H](C(N)=O)NC(=O)[C@H](Cc2c[nH]c3ccccc23)NC(=O)[C@@H]2C[C@H](n3cc(CCc4ccccc4)nn3)CN2C1=O [AAR029] (H-DNI[Pro(cis-4-Trz(4-CH2CH2Ph))]WK-NH2; lactam 1-6)", "dual inhibitors"),
]
